- Assay Details: Dissociation constant, pKa of compound
- Type: physicochemical
Recorded Metric: pKa

Fill in the blank: the reported pKa of FC(F)(F)C(F)(F)c1nc(-c2cccnc2)n[nH]1 is ____.
8

Fill in the blank: the reported pKa of FC(F)(F)C(F)(F)c1cc(-c2cccnc2)n[nH]1 is ____.
10

----------
- Assay Details: Drug concentration in blood of SCID mouse model infected with plasmodium falciparum 3D7 at 50 mg/kg/day, po administered for 4 days
- Assay type: ADME, organism-based
- Study Conditions: time 4 day, read-out: Ct
Recorded Metric: concentration at 96 h

Fill in the blank: the reported concentration at 96 h of CCCNc1ccc(C(=O)/C=C(\O)C(F)(F)C(F)(F)F)cn1 is ____.
~2000 ng/mL
